test system: IL-2 production by Jurkat T cells; test: Immunosuppressive activity: activation-induced IL-2 production, ELISA; format: cell-based, human; conditions: 4 μM; Jurkat T cells, PMA + calcium ionophore, IL-2 ELISA
Recorded Cytokine production (M.A.: mean absorbance) (C) % relative to control by entry
Measured attribute: Cytokine production (M.A.: mean absorbance) (C) % relative to control (%)

• CC(=C/C=C/C(C)=C/[C@@H](O)[C@H](O)C[C@@H](C)O)C=C(C)/C=C/C(=O)O[C@H]1CCCC(=O)O[C@@H]([C@@H](C)C/C(C)=C/[C@@H](C)[C@H](O)C[C@@H](C)O)C/C=C/C[C@@H]1C (racemic) [Compound 20c] = 35
• C/C(=C\[C@@H](C)[C@H](O)C[C@@H](C)O)C[C@H](C)[C@H]1C/C=C/C[C@H](C)[C@@H](O)CCCC(=O)O1 [Compound 11c] = 30
• CC(=C/C=C/C(C)=C/C[C@@H](O)CC(C)O)C=C(C)/C=C/C(=O)O[C@H]1CCCC(=O)O[C@@H]([C@@H](C)C/C(C)=C/[C@@H](C)[C@H](O)C[C@@H](C)O)C/C=C/C[C@@H]1C (stereo in doubt) [Compound 20d] = 30
• CC(=C/C=C/C(C)=C/[C@H](O)[C@@H](O)C[C@H](C)O)C=C(C)/C=C/C(=O)O[C@H]1CCCC(=O)O[C@@H]([C@@H](C)C/C(C)=C/[C@@H](C)[C@H](O)C[C@@H](C)O)C/C=C/C[C@@H]1C (racemic) [Compound 20a] = 40
• CC(=C\C=C\C(C)=C\[C@H](O)[C@@H](O)C[C@H](C)O)/C=C(C)/C=C/C(=O)O[C@H]1CCCC(=O)O[C@@H](C(C)C)C/C=C/C[C@@H]1C = 58
• CC(=C/C=C/C(C)=C/[C@H](O)[C@@H](O)C[C@@H](C)O)C=C(C)/C=C/C(=O)O[C@H]1CCCC(=O)O[C@@H]([C@@H](C)C/C(C)=C/[C@@H](C)[C@H](O)C[C@@H](C)O)C/C=C/C[C@@H]1C (racemic) [Compound 20b] = 55

###

tested on: CD62-L receptor expression by human peripheral blood cells (PBLs); test: T cell homing: expression of CD62-L receptor, flow cytometry; type: cell-based; conditions: T-cell; human PBLs, 72 h; % inhibition relative to control; read-out: CD62-L expression (D): IC50 value (concentration at which the compound induces 50% of mycolactone maximal activity)
Measured attribute: IC50 (µM)

• CC(=C/C=C/C(C)=C/[C@H](O)[C@@H](O)C[C@@H](C)O)C=C(C)/C=C/C(=O)O[C@H]1CCCC(=O)O[C@@H]([C@@H](C)C/C(C)=C/[C@@H](C)[C@H](O)C[C@@H](C)O)C/C=C/C[C@@H]1C (racemic) [Compound 20b] = 8
• C/C(=C\[C@@H](C)[C@H](O)C[C@@H](C)O)C[C@H](C)[C@H]1C/C=C/C[C@H](C)[C@@H](O)CCCC(=O)O1 [Compound 11c] = 16
• CC(=C\C=C\C(C)=C\[C@H](O)[C@@H](O)C[C@H](C)O)/C=C(C)/C=C/C(=O)O[C@H]1CCCC(=O)O[C@@H](C(C)C)C/C=C/C[C@@H]1C = 3.7

###

Recorded Cytokine production (C): corresponding % of mycolactone activity (in brackets) by entry
system: IL-2 production by Jurkat T cells; assay: Immunosuppressive activity: activation-induced IL-2 production, ELISA; format: cell-based, human; settings: relative to mycolactone (100%)
Measured attribute: Cytokine production (C): corresponding % of mycolactone activity (in brackets) (%)

- C/C(=C\[C@@H](C)[C@H](O)C[C@@H](C)O)C[C@H](C)[C@H]1C/C=C/C[C@H](C)[C@@H](O)CCCC(=O)O1 [Compound 11c]: 1.2
- CC(=C/C=C/C(C)=C/[C@@H](O)[C@H](O)C[C@@H](C)O)C=C(C)/C=C/C(=O)O[C@H]1CCCC(=O)O[C@@H]([C@@H](C)C/C(C)=C/[C@@H](C)[C@H](O)C[C@@H](C)O)C/C=C/C[C@@H]1C (racemic) [Compound 20c]: 1.5
- CC(=C/C=C/C(C)=C/C[C@@H](O)CC(C)O)C=C(C)/C=C/C(=O)O[C@H]1CCCC(=O)O[C@@H]([C@@H](C)C/C(C)=C/[C@@H](C)[C@H](O)C[C@@H](C)O)C/C=C/C[C@@H]1C (stereo in doubt) [Compound 20d]: 1.4
- CC(=C/C=C/C(C)=C/[C@H](O)[C@@H](O)C[C@@H](C)O)C=C(C)/C=C/C(=O)O[C@H]1CCCC(=O)O[C@@H]([C@@H](C)C/C(C)=C/[C@@H](C)[C@H](O)C[C@@H](C)O)C/C=C/C[C@@H]1C (racemic) [Compound 20b]: 2.5
- CC(=C/C=C/C(C)=C/[C@H](O)[C@@H](O)C[C@H](C)O)C=C(C)/C=C/C(=O)O[C@H]1CCCC(=O)O[C@@H]([C@@H](C)C/C(C)=C/[C@@H](C)[C@H](O)C[C@@H](C)O)C/C=C/C[C@@H]1C (racemic) [Compound 20a]: 1.6
- CC(=C\C=C\C(C)=C\[C@H](O)[C@@H](O)C[C@H](C)O)/C=C(C)/C=C/C(=O)O[C@H]1CCCC(=O)O[C@@H](C(C)C)C/C=C/C[C@@H]1C: 3.3

###

system: epithelial HeLa cell line; test: Cytopathic activity, MTT assay (effect on global cell metabolic activity); assay type: cell-based, human; settings: relative to mycolactone (100%)
Recorded Metabolic activity (A): corresponding % of mycolactone activity (in brackets) by entry
Measured attribute: Metabolic activity (A): corresponding % of mycolactone activity (in brackets) (%)

* CC(=C/C=C/C(C)=C/[C@H](O)[C@@H](O)C[C@H](C)O)C=C(C)/C=C/C(=O)O[C@H]1CCCC(=O)O[C@@H]([C@@H](C)C/C(C)=C/[C@@H](C)[C@H](O)C[C@@H](C)O)C/C=C/C[C@@H]1C (racemic) [Compound 20a] | 25
* CC(=C/C=C/C(C)=C/[C@H](O)[C@@H](O)C[C@@H](C)O)C=C(C)/C=C/C(=O)O[C@H]1CCCC(=O)O[C@@H]([C@@H](C)C/C(C)=C/[C@@H](C)[C@H](O)C[C@@H](C)O)C/C=C/C[C@@H]1C (racemic) [Compound 20b] | 23
* C/C(=C\[C@@H](C)[C@H](O)C[C@@H](C)O)C[C@H](C)[C@H]1C/C=C/C[C@H](C)[C@@H](O)CCCC(=O)O1 [Compound 11c] | 20

###

system: CD62-L receptor expression by human peripheral blood cells (PBLs); assay: T cell homing: expression of CD62-L receptor, flow cytometry; format: cell-based; conditions: relative to mycolactone (100%)
Measured attribute: CD62-L expression (D): corresponding % of mycolactone activity (in brackets) (%)

- CC(=C/C=C/C(C)=C/[C@H](O)[C@@H](O)C[C@@H](C)O)C=C(C)/C=C/C(=O)O[C@H]1CCCC(=O)O[C@@H]([C@@H](C)C/C(C)=C/[C@@H](C)[C@H](O)C[C@@H](C)O)C/C=C/C[C@@H]1C (racemic) [Compound 20b]: 0.4
- C/C(=C\[C@@H](C)[C@H](O)C[C@@H](C)O)C[C@H](C)[C@H]1C/C=C/C[C@H](C)[C@@H](O)CCCC(=O)O1 [Compound 11c]: 0.2
- CC(=C\C=C\C(C)=C\[C@H](O)[C@@H](O)C[C@H](C)O)/C=C(C)/C=C/C(=O)O[C@H]1CCCC(=O)O[C@@H](C(C)C)C/C=C/C[C@@H]1C: 0.8

###

tested on: IL-2 production by Jurkat T cells; assay: Immunosuppressive activity: activation-induced IL-2 production, ELISA; format: cell-based, human; settings: 8 μM; Jurkat T cells, PMA + calcium ionophore, IL-2 ELISA
Recorded Cytokine production (M.A.: mean absorbance) (C) % relative to control by entry
Measured attribute: Cytokine production (M.A.: mean absorbance) (C) % relative to control (%)

* CC(=C/C=C/C(C)=C/[C@H](O)[C@@H](O)C[C@H](C)O)C=C(C)/C=C/C(=O)O[C@H]1CCCC(=O)O[C@@H]([C@@H](C)C/C(C)=C/[C@@H](C)[C@H](O)C[C@@H](C)O)C/C=C/C[C@@H]1C (racemic) [Compound 20a] | 70
* C/C(=C\[C@@H](C)[C@H](O)C[C@@H](C)O)C[C@H](C)[C@H]1C/C=C/C[C@H](C)[C@@H](O)CCCC(=O)O1 [Compound 11c] | 50
* CC(=C/C=C/C(C)=C/[C@@H](O)[C@H](O)C[C@@H](C)O)C=C(C)/C=C/C(=O)O[C@H]1CCCC(=O)O[C@@H]([C@@H](C)C/C(C)=C/[C@@H](C)[C@H](O)C[C@@H](C)O)C/C=C/C[C@@H]1C (racemic) [Compound 20c] | 65
* CC(=C/C=C/C(C)=C/[C@H](O)[C@@H](O)C[C@@H](C)O)C=C(C)/C=C/C(=O)O[C@H]1CCCC(=O)O[C@@H]([C@@H](C)C/C(C)=C/[C@@H](C)[C@H](O)C[C@@H](C)O)C/C=C/C[C@@H]1C (racemic) [Compound 20b] | 92
* CC(=C\C=C\C(C)=C\[C@H](O)[C@@H](O)C[C@H](C)O)/C=C(C)/C=C/C(=O)O[C@H]1CCCC(=O)O[C@@H](C(C)C)C/C=C/C[C@@H]1C | 95
* CC(=C/C=C/C(C)=C/C[C@@H](O)CC(C)O)C=C(C)/C=C/C(=O)O[C@H]1CCCC(=O)O[C@@H]([C@@H](C)C/C(C)=C/[C@@H](C)[C@H](O)C[C@@H](C)O)C/C=C/C[C@@H]1C (stereo in doubt) [Compound 20d] | 55

Where do the numbers come from? From patent US9598393B2.
